Please provide measured melting point for the entries that follow.

Exercise: Look at this molecule and give its reported melting point. O=C(Nc1ccc(Oc2ccnc(NCc3ccccc3)n2)c2ccccc12)c1cc(F)cc(N2CCOCC2)c1 [Compound B249]
Solution: 121 to 123 °C

Exercise: Fill in: melting point of O=C(Nc1ccc(Oc2ccnc(NCC3OCCO3)n2)c2ccccc12)c1cc(F)cc(N2CCOCC2)c1 [Compound B369] is ___
Solution: 122 to 124 °C

Exercise: Item under review: O=C(Nc1ccc(Oc2ccnc(N3CCC(O)CC3)n2)c2ccccc12)c1cc(F)cc(N2CCCCC2)c1 [Compound B387] . Reported melting point?
Solution: 182 to 184 °C

Exercise: Give its melting point value. Item: CC1CC(C)CN(c2nccc(Oc3ccc(NC(=O)c4cc(F)cc(N5CCOCC5)c4)c4ccccc34)n2)C1 (stereo not drawn) [Compound B348]
Solution: 102 to 104 °C

Exercise: Given CN(C(=N)N)c1nccc(Oc2ccc(NC(=O)c3cc(F)cc(N4CCOCC4)c3)c3ccccc23)n1 [Compound B367] , state its recorded melting point.
Solution: 155 to 157 °C

Exercise: Could you share which melting point value was measured for O=C(Nc1ccc(OCCN2CCOCC2)c2ccccc12)c1cccc(N2CCOCC2)c1 [Compound B169] ?
Solution: 90 to 92 °C

Exercise: State the recorded melting point for this entry: CC(C)N(C)c1nccc(Oc2ccc(NC(=O)c3cc(F)cc(N4CCCCC4)c3)c3ccccc23)n1 [Compound B385]
Solution: 102 to 104 °C

Exercise: Looking for the measured melting point of O=C(Nc1ccc(OCCN2CCOCC2)c2ccccc12)c1cccc(-c2cccnc2)c1 [Compound B58] , can you help?
Solution: 77 to 78 °C

Exercise: Recorded melting point for CC1CCN(c2nccc(Oc3ccc(NC(=O)c4cc(F)cc(N5CCCCC5)c4)c4ccccc34)n2)CC1 [Compound B381] , please?
Solution: 145 to 146 °C

Exercise: Query (molecule): COC(CN(C)c1nccc(Oc2ccc(NC(=O)c3cc(F)cc(N4CCCCC4)c3)c3ccccc23)n1)OC [Compound B403] ; field requested: melting point
Solution: 135 to 136 °C

Exercise: Need melting point, item CN1CCN(c2nccc(Oc3ccc(NC(=O)c4cc(F)cc(N5CCOCC5)c4)c4ccccc34)n2)CC1 [Compound B328]
Solution: 195 to 197 °C

Exercise: What measured melting point goes with N#CNc1nccc(Oc2ccc(NC(=O)c3cc(F)cc(N4CCCCC4)c3)c3ccccc23)n1 [Compound B380] ?
Solution: 160 to 162 °C
